The entries below come with measured Emax values attached.
- MEASURED TARGET: human M2 receptor (Homo sapiens)
- Sequence (P08172 whole entry): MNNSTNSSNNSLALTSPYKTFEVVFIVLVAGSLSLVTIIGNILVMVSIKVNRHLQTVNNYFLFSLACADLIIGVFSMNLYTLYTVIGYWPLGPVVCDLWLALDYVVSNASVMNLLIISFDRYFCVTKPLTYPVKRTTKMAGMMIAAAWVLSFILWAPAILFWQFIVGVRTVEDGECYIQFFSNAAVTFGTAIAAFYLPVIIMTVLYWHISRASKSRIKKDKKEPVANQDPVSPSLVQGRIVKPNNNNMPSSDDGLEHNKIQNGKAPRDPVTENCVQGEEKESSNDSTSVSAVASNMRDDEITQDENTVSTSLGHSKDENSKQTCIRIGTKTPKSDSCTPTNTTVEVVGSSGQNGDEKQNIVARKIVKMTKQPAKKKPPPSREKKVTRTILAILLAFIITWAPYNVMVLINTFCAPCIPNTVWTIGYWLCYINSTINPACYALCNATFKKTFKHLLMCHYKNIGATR
- MEASUREMENT NOTES: SPA GTP (GTPgS) binding curve shift assay, M2
- Assay type: biochemical
- CONDITIONS: M2; MK-4710 concentration 1110 nM; read-out: Emax
# value in %; strip the unit string

Query :: I would be grateful if you could share the reported Emax for CCCCCCOc1nsnc1C1=CCCN(C)C1 [xanomeline, reference compound] .
Result :: 74.1

Query :: Follow-up entry: CC1OC2(CS1)CN1CCC2CC1 (stereo not shown) [cevimeline, Cevimeline, reference compound]
Result :: 49.5

Query :: Follow-up entry: "CCCCCCCOc1nsnc1C1=CCCCN1C"
Result :: 62.2

Query :: Follow-up entry: "CCCCCOc1nsnc1C1=CCCCN1C"
Result :: 70.6

====

The entries below come with measured Emax values attached.
- MEASURED TARGET: human M4 receptor (Homo sapiens)
- Construct: expressed in transfected cells
- MEASUREMENT NOTES: SPA GTP (GTPgS) binding curve shift assay, M4
- Assay type: biochemical
- CONDITIONS: MK-4710 concentration 1110 nM, read-out: Emax
- Description: Membranes were prepared for GTPgS binding assays from CHO-K1 cells stably expressing human M2 or human M4 receptors. Cells were grown in 5-layer cell culture flasks. Cells were washed with 50 mL of PBS and then dissociated with 0.05% trypsin. […] According to Promega guidelines, membrane protein concentration was determined by BCA protein assay (Promega, Madison, WI). […] Raw data for all assays was transmitted directly from plate readers into the Beacon database for processing. […]
# value in %; strip the unit string

- COMPOUND: "CCCCCCCOc1nsnc1C1=CCCCN1C [KTX-593]"
  EXPERIMENTAL READOUT: "Emax"
  OUTPUT UNIT: "%"
  EXPERIMENTAL VALUE: 80
- COMPOUND: "CC1OC2(CS1)CN1CCC2CC1 (stereo not shown) [cevimeline, Cevimeline, reference compound]"
  EXPERIMENTAL READOUT: "Emax"
  OUTPUT UNIT: "%"
  EXPERIMENTAL VALUE: 68.1
- COMPOUND: "CCCCCOc1nsnc1C1=CCCCN1C [KTX-517]"
  EXPERIMENTAL READOUT: "Emax"
  OUTPUT UNIT: "%"
  EXPERIMENTAL VALUE: 75.1

Would you kindly look at the next entry?
Query :: I would be grateful if you could share the reported Emax for CCCCCCOc1nsnc1C1=CCCN(C)C1 [xanomeline, reference compound] .
Result :: 70.6

====

- MEASURED TARGET: human M3 receptor (Homo sapiens, UniProt P20309)
- Construct: expressed in transfected cells
- Sequence (P20309 whole entry): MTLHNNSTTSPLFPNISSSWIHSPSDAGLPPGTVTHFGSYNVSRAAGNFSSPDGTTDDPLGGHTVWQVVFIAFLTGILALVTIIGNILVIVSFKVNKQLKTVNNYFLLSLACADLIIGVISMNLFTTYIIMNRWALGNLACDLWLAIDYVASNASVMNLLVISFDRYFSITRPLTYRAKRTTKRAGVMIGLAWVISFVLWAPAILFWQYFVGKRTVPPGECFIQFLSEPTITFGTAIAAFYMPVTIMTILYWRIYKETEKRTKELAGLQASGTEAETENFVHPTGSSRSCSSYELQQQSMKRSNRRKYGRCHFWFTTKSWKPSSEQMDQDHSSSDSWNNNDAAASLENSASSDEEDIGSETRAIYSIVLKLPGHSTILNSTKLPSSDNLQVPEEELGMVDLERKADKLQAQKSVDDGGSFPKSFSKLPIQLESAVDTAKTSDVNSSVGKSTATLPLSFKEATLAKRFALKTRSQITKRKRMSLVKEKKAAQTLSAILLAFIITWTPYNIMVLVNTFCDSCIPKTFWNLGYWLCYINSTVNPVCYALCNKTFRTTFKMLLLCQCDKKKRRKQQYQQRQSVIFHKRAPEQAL
- MEASUREMENT NOTES: HTRF IP-One curve shift assay, M3
- Type: cell-based
- CONDITIONS: MK-4710 concentration 0 nM
EXPERIMENTAL READOUT: EC50 (nM)
# value in nM; strip the unit string

- COMPOUND: "CCCCCOc1nsnc1C1=CCCCN1C [KTX-517]"
  OUTPUT UNIT: "nM"
  EC50: 33.8

Query :: I would be grateful if you could share the reported EC50 for CCCCCCOc1nsnc1C1=CCCN(C)C1 [xanomeline, reference compound] .
Result :: 147

Query :: Follow-up entry: CC1OC2(CS1)CN1CCC2CC1 (stereo not shown) [cevimeline, Cevimeline, reference compound]
Result :: 6360

Query :: Follow-up entry: CCCCCCCOc1nsnc1C1=CCCCN1C [KTX-593]
Result :: 45

====

The entries below come with measured Emax values attached.
- MEASURED TARGET: human M4 receptor (Homo sapiens)
- Construct: expressed in transfected cells
- Sequence (P08173 1-479): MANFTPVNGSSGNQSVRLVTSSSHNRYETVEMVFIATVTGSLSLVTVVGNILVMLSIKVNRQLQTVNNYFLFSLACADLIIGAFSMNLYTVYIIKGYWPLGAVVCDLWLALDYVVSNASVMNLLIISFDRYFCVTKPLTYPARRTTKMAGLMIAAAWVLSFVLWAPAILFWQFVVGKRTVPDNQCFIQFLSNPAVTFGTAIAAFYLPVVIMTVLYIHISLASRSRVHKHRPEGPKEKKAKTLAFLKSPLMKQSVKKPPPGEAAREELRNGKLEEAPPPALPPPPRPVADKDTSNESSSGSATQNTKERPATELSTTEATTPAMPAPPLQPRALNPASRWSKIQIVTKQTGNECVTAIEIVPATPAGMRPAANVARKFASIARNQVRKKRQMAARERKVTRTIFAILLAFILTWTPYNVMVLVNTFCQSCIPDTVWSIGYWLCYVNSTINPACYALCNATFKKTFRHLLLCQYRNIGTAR
- MEASUREMENT NOTES: SPA GTP (GTPgS) binding curve shift assay, M4
- Type: biochemical
- CONDITIONS: MK-4710 concentration 3330 nM, read-out: Emax

Recorded results for 3 molecules are shown here.
- MOLECULE: "CCCCCCCOc1nsnc1C1=CCCCN1C"
  EXPERIMENTAL VALUE: "88.1%"
- MOLECULE: "CC1OC2(CS1)CN1CCC2CC1 (stereo not shown) [cevimeline, Cevimeline, reference compound]"
  EXPERIMENTAL VALUE: "83.6%"
- MOLECULE: "CCCCCCOc1nsnc1C1=CCCN(C)C1 [xanomeline, reference compound]"
  EXPERIMENTAL VALUE: "80.5%"

Would you kindly look at the next entry?
Query :: I would be grateful if you could share the reported Emax for "CCCCCOc1nsnc1C1=CCCCN1C" .
Result :: 87.1%

====

- MEASURED TARGET: human M5 receptor (Homo sapiens)
- Construct: expressed in transfected cells
- MEASUREMENT NOTES: HTRF IP-One curve shift assay, M5
- Assay type: cell-based
- CONDITIONS: M5; Emraclidine concentration 370 nM
EXPERIMENTAL READOUT: EC50 (nM)
# value in nM; strip the unit string

Query :: I would be grateful if you could share the reported EC50 for "CCCCCOc1nsnc1C1=CCCCN1C" .
Result :: 161

====

- MEASURED TARGET: human M3 receptor (Homo sapiens)
- Construct: expressed in transfected cells
- MEASUREMENT NOTES: HTRF IP-One curve shift assay, M3
- Type: cell-based
- CONDITIONS: MK-4710 concentration 370 nM
- Description: HTRF IP-One assays were performed using frozen cell aliquots prepared from CHO-K1 cell lines stably expressing human M1, M3, or M5 receptors. Cells were frozen following typical cell freezing protocols. […] Six μL of IP-1 detection reagents (IP-One Gq HTRF kit, Cisbio Cat #62IPAPEJ) were dispensed to the cells. […] Then, plates were read on an Envision plate reader following the Cisbio guidelines. Raw data for all assays was transmitted directly from plate readers into the Beacon database for processing. […]
EXPERIMENTAL READOUT: Emax at […] (%)
# value in %; strip the unit string

- COMPOUND: "CC1OC2(CS1)CN1CCC2CC1 (stereo not shown) [cevimeline, Cevimeline, reference compound]"
  MEASURED TARGET: "human M3 receptor (Homo sapiens)"
  Emax at […], %: 163
- COMPOUND: "CCCCCCCOc1nsnc1C1=CCCCN1C [KTX-593]"
  MEASURED TARGET: "human M3 receptor (Homo sapiens)"
  Emax at […], %: 76.7
- COMPOUND: "CCCCCOc1nsnc1C1=CCCCN1C [KTX-517]"
  MEASURED TARGET: "human M3 receptor (Homo sapiens)"
  Emax at […], %: 53.4

Query :: I would be grateful if you could share the reported Emax at […] for CCCCCCOc1nsnc1C1=CCCN(C)C1 [xanomeline, reference compound] .
Result :: 88.9

====

- MEASURED TARGET: human M5 receptor (Homo sapiens)
- Construct: expressed in transfected cells
- MEASUREMENT NOTES: HTRF IP-One curve shift assay, M5
- Format: cell-based
- CONDITIONS: M5; Emraclidine concentration 41.2 nM
EXPERIMENTAL READOUT: EC50 (µM)
# value in µM; strip the unit string

Query :: I would be grateful if you could share the reported EC50 for "CCCCCOc1nsnc1C1=CCCCN1C" .
Result :: 0.11

====

The entries below come with measured Emax values attached.
- MEASURED TARGET: human M5 receptor (Homo sapiens, UniProt P08912)
- Construct: expressed in transfected cells
- Sequence (P08912 whole entry): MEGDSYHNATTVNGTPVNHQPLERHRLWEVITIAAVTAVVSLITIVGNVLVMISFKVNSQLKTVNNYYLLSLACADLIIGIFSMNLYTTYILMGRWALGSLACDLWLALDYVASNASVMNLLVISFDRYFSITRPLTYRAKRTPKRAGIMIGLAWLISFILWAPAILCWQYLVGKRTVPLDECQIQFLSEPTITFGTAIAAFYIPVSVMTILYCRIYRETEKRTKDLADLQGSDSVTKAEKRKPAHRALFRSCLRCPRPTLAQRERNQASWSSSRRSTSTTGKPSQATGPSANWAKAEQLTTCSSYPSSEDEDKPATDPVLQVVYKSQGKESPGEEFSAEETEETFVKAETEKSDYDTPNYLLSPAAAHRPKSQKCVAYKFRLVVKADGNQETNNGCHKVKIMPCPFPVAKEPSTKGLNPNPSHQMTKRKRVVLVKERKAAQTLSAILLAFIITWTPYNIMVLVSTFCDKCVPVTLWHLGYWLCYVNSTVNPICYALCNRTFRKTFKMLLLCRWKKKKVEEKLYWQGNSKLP
- MEASUREMENT NOTES: HTRF IP-One curve shift assay, M5
- Format: cell-based
- CONDITIONS: M5; MK-4710 concentration 41.2 nM; read-out: Emax
# value in %; strip the unit string

Recorded results for 3 compounds are shown here.
- COMPOUND: "CC1OC2(CS1)CN1CCC2CC1 (stereo not shown) [cevimeline, Cevimeline, reference compound]"
  Emax, %: 95.2
- COMPOUND: "CCCCCCCOc1nsnc1C1=CCCCN1C [KTX-593]"
  Emax, %: 78.3
- COMPOUND: "CCCCCCOc1nsnc1C1=CCCN(C)C1 [xanomeline, reference compound]"
  Emax, %: 87

Query :: I would be grateful if you could share the reported Emax for CCCCCOc1nsnc1C1=CCCCN1C [KTX-517] .
Result :: 62.5
